target: NR2B-subtype NMDA receptors (Rattus norvegicus (Rat), UniProt P35439+Q00960); test: Radioligand binding assay (3H Ro 25-6981 competition, rat forebrain membranes); conditions: 3H Ro 25-6981 (4 nM)
Sequence (Q00960 27-1482, other chains not shown): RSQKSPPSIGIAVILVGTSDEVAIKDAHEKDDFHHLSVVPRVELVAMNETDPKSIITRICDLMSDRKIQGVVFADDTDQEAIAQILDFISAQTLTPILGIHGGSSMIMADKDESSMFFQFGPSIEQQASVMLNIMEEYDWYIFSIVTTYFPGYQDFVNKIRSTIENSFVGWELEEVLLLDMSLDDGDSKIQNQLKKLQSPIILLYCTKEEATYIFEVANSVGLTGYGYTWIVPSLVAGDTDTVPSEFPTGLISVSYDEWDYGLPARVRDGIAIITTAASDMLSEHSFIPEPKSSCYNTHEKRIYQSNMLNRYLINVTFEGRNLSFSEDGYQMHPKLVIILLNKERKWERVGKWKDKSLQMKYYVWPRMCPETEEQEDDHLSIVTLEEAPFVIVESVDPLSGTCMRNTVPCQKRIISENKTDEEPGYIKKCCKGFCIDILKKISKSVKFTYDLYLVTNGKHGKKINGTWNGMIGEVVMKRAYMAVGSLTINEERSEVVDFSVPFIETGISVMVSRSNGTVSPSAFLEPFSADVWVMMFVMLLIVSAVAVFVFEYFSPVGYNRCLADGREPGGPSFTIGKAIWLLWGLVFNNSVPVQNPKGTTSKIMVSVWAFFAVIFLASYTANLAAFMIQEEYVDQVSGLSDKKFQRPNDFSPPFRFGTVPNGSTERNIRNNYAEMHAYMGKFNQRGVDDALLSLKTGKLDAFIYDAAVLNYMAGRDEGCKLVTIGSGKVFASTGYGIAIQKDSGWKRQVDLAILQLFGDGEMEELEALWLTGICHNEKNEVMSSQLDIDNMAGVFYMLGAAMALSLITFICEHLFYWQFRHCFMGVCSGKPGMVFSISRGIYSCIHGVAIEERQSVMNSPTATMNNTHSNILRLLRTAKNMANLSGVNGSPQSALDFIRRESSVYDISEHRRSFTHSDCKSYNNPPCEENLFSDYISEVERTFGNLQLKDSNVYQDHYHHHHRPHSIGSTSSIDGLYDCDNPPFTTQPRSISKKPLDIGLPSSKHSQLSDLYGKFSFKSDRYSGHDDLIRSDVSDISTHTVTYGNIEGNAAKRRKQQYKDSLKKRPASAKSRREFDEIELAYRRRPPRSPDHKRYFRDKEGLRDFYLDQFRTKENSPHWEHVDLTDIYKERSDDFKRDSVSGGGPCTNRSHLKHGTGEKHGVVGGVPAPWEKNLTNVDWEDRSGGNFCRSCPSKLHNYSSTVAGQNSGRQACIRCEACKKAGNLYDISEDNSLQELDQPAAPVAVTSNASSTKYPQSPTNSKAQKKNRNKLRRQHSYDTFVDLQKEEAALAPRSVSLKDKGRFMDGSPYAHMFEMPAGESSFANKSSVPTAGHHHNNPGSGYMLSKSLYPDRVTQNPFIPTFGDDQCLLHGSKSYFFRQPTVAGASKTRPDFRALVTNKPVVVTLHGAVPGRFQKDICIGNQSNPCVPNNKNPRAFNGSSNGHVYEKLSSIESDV
reported-property: Ki (nM)

[A] Cc1ccc(CN2OCCC(N3CCC(c4ccc(O)cc4)CC3)C2=O)cc1 (racemic) [Example 4]
[B] O=C1C(N2CCC(c3ccc(O)cn3)CC2)CON1Cc1ccc(F)cc1 (racemic) [Example 3]
Given the listed records, identify the one among A and B with higher Ki. Indicate your choice by writing its label. B
(B: 15.1 nM, A: 5.49 nM)
